Molecular target: UniProtKB P08173
Sequence (P08173 1-479): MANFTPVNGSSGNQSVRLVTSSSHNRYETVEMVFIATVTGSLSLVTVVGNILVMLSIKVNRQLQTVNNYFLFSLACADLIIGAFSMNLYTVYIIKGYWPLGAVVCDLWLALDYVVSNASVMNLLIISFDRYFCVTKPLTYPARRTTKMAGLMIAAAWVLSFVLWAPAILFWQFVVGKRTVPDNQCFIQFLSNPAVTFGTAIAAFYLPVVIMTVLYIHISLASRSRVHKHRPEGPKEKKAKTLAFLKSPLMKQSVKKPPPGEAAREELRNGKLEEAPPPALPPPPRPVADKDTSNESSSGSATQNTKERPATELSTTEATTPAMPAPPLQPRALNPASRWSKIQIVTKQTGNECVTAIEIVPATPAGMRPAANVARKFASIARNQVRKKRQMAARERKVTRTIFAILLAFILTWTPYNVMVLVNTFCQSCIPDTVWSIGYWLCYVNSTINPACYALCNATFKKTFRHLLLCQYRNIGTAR
Assay: mAChR M4 cell-based functional assay: calcium mobilization (Fluo-4, FDSS), potentiation of EC20 acetylcholine response in hM4-Gqi5 CHO-K1 cells
Details: potentiation of EC20 acetylcholine response, calcium mobilization, human M4
measured attribute: EC50 (nM)
Just the number please, in nM, no unit attached.

Cc1ncccc1-c1cnc2c(c1)CN(c1nn3c(=O)ccnc3c(C)c1C)CC2
332

Q) Find the recorded EC50 belonging to Cc1cc(=O)n2nc(N3CCc4ncc(-c5ccc(F)nc5)cc4C3)c(C)c(C)c2n1 and report it.
A) 102

Q) Find the recorded EC50 belonging to Cc1cc2ncc(N3CCOCC3)c(=O)n2nc1N1CCc2ncc(C(F)(F)F)cc2C1 and report it.
A) 113

Q) Find the recorded EC50 belonging to COCc1cc(=O)n2nc(N3CCc4ncc(-c5ccc(F)nc5)cc4C3)c(C)cc2n1 and report it.
A) 374

Q) Find the recorded EC50 belonging to Cc1cc2nccc(=O)n2nc1N1CCc2ncc(N3CCOC(c4ccccc4F)C3)cc2C1 (stereo not shown) and report it.
A) 268

Q) Find the recorded EC50 belonging to Cc1cc2nccc(=O)n2nc1N1CCc2ncc(NCc3cncn3C)cc2C1 and report it.
A) 2790

Q) Find the recorded EC50 belonging to Cc1ccc(-c2cnc3c(c2)CN(c2nn4c(=O)ccnc4cc2C)CC3)nn1 and report it.
A) 1270

====

Target: human mAChR M4 (Homo sapiens)
Test: mAChR M4 cell-based functional assay: calcium mobilization (Fluo-4, FDSS), potentiation of EC20 acetylcholine response in hM4-Gqi5 CHO-K1 cells
Details: potentiation of EC20 acetylcholine response, calcium mobilization, human M4
Just a reminder that ties go to rule not met: only EC50 strictly below 300 nM counts as rule met.

Known results for compounds:
COC1CN(C(=O)c2cc(=O)n3nc(N4CCc5ncc(C(F)(F)F)cc5C4)c(C)cc3n2)C1
rule met
Cc1cc2nccc(=O)n2nc1N1CCc2ncc(-c3cnn(C)c3C)cc2C1
rule met
Cc1cc(=O)n2nc(N3CCc4ncc(-c5ccc(C(F)(F)F)nc5)cc4C3)c(C)c(C)c2n1
rule not met
Cc1ccc(-c2cnc3c(c2)CN(c2nn4c(=O)cc(C(F)F)nc4c(C)c2C)CC3)c(C)c1
rule not met
Cc1cc(=O)n2nc(N3CCc4ncc(-c5ccc(C)o5)cc4C3)c(C)cc2n1
rule met

Q) Does the reported EC50 of the following compound sit strictly below 300 nM? Cc1cc2nccc(=O)n2nc1N1CCc2ncc(-c3cnn(C)c3)cc2C1
A) rule not met

Q) Does the reported EC50 of the following compound sit strictly below 300 nM? COC1CCN(c2cnc3c(c2)CN(c2nn4c(=O)cc(C)nc4c(C)c2C)CC3)CC1
A) rule not met

Q) Does the reported EC50 of the following compound sit strictly below 300 nM? COCc1cc(=O)n2nc(N3CCc4ncc(-c5cnc(F)cc5C)cc4C3)c(C)cc2n1
A) rule not met

Q) Does the reported EC50 of the following compound sit strictly below 300 nM? Cc1c(N2CCc3ncc(-c4ccnnc4)cc3C2)nn2c(=O)cc(C(F)F)nc2c1C
A) rule met
